Entries and their measured viability at 72 h, 1 ug/ml follow.
assay: Antiproliferative activity against mouse J774A1 cells assessed as cell viability at 1 ug/ml after 72 hrs by MTT assay relative to LPS
Assay type: cell-based, J774.A1
Respond numerically; units are % and should not be typed.

Worked examples, 4 compounds total:
[[record]]
compound = "Sc1ncnc2nc[nH]c12 [MERCAPTOPURINE ANHYDROUS]"
reading = 44.1

[[record]]
compound = "C[C@@H]1O[C@@H](O[C@H]2[C@H](OCCc3ccc(O)c(O)c3)O[C@H](CO)[C@@H](OC(=O)/C=C/c3ccc(O)c(O)c3)[C@@H]2O)[C@H](O)[C@H](O)[C@H]1O [PARVIFLOROSIDE A]"
reading = 96.7

[[record]]
compound = "O=C(/C=C/c1ccc(O)c(O)c1)O[C@H]1[C@H](O)[C@@H](O[C@@H]2OC[C@](O)(CO)[C@H]2O)[C@H](OCCc2ccc(O)c(O)c2)O[C@@H]1CO [FUCATOSIDE A]"
reading = 97.3

[[record]]
compound = "O=C(/C=C/c1ccc(O)c(O)c1)O[C@H]1[C@H](O[C@@H]2OC[C@](O)(CO)[C@H]2O)[C@@H](O[C@@H]2OC[C@@H](O)[C@H](O)[C@H]2O)[C@H](OCCc2ccc(O)c(O)c2)O[C@@H]1CO [FUCATOSIDE B]"
reading = 97.5


Lab note: next compound to report on.
Noted for O=C(/C=C/c1ccc(O)c(O)c1)O[C@H]1[C@H](O[C@@H]2OC[C@@](O)(CO)[C@H]2O)[C@@H](O[C@@H]2OC[C@@](O)(CO)[C@H]2O)[C@H](OCCc2ccc(O)c(O)c2)O[C@@H]1CO [FUCATOSIDE C] : its viability at 72 h, 1 ug/ml reads 96.4
